Every entry's value here was drawn from ChEMBL document CHEMBL1133362.

- target-or-test-system: Integrin alpha-4/beta-1 (Homo sapiens, UniProt P05556+P13612)
- Sequence (P05556 whole entry): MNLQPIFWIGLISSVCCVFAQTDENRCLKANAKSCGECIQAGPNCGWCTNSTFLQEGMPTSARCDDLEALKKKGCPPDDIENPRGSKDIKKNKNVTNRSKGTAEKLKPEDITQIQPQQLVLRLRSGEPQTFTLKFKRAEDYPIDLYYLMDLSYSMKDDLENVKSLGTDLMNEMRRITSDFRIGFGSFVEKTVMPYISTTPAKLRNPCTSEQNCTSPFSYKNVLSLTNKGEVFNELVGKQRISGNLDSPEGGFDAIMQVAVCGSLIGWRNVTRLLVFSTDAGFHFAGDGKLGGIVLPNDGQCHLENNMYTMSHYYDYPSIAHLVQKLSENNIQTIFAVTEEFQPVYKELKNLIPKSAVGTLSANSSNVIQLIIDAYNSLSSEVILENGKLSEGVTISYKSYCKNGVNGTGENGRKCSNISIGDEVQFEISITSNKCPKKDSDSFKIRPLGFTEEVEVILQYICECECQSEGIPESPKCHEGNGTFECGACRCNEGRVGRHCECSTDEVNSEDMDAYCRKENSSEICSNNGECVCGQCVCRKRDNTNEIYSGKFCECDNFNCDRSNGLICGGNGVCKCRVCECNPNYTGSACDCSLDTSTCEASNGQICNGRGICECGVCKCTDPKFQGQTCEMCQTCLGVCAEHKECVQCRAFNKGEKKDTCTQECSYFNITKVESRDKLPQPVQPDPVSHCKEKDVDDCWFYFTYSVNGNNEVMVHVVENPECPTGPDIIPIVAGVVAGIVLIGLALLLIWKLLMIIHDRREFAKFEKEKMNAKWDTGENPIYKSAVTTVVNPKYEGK
- Sequence (P13612 whole entry): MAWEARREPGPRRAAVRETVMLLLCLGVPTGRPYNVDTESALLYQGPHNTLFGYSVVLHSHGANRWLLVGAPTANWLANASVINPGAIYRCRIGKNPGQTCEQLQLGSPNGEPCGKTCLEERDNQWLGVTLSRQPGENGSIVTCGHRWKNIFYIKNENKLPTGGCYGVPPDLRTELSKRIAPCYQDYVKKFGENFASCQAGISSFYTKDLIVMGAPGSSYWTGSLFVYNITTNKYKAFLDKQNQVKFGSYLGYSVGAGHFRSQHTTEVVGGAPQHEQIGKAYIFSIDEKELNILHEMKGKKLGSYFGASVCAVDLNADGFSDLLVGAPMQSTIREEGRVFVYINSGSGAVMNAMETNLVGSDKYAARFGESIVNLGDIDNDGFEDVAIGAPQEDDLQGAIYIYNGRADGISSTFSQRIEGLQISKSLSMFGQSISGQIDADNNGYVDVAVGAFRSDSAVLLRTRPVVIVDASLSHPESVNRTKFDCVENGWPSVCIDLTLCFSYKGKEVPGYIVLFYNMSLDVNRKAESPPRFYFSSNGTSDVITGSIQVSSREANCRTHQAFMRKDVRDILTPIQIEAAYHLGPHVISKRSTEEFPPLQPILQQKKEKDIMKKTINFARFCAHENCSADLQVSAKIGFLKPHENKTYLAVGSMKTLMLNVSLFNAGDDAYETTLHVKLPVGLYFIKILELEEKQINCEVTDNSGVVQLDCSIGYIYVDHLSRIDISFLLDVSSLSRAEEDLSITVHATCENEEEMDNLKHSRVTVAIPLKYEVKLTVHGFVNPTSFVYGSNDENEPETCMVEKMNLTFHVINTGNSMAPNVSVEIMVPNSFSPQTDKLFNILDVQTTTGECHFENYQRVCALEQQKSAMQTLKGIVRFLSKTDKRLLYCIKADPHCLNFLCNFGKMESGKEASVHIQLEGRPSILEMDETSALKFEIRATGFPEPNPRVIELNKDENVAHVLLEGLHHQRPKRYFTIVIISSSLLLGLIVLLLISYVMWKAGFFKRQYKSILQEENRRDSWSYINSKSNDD
- assay-overview: Inhibition of VCAM (vascular cell adhesion molecule) adhesion to alpha4-beta1 integrin of leukocyte cells
pIC50: −log10 of the molar value.
Values of pIC50 greater than or equal to 6 map to label 1; values below map to label 0.

Problem: Check this molecule for pIC50 at or above 6: CC(=O)N1CCCC[C@H]1C(=O)N[C@@H](CSSCCNC(=O)C12CC3CC(CC(C3)C1)C2)C(=O)O
Solution: label 1

Next:
Problem: Entry O=C(O)C[C@H]1CN2CSC[C@H]2C(=O)N[C@H](C(=O)O)CSSC[C@H](NC(=O)C23CC4CC(CC(C4)C2)C3)C(=O)N1 : is its pIC50 no less than 6?
Solution: label 1

Problem: Does the reported pIC50 for COC(=O)[C@H](CSSC[C@H](NC(=O)C12CC3CC(CC(C3)C1)C2)C(=O)O)NC(=O)C12CC3CC(CC(C3)C1)C2 fall at or above the 6 mark?
Solution: label 0

Problem: Does O=C(O)[C@H](CSSCCNC(=O)C12CC3CC(CC(C3)C1)C2)NC(=O)C12CC3CC(CC(C3)C1)C2 have a reported pIC50 of at least 6?
Solution: label 0

Problem: I'd appreciate it if you could say whether CC(=O)N1CCC[C@H]1C(=O)N[C@@H](CSSCCNC(=O)C12CC3CC(CC(C3)C1)C2)C(=O)O has pIC50 at least equal to 6.
Solution: label 0

Problem: In plain terms: is recorded pIC50 at least 6 for O=C(O)C[C@H]1CN2CCC[C@H]2C(=O)N[C@H](C(=O)O)CSSC[C@H](NC(=O)C23CC4CC(CC(C4)C2)C3)C(=O)N1 ?
Solution: label 1

Problem: Is pIC50 for CC(=O)N1CSC[C@H]1C(=O)N[C@@H](CSSCCNC(=O)C12CC3CC(CC(C3)C1)C2)C(=O)O at or above 6?
Solution: label 1

====

Assignment: determine reported IC50 for the given compounds.
- target-or-test-system: Integrin alpha-4/beta-1 (Homo sapiens, UniProt P05556+P13612)
- assay-overview: Inhibition of VCAM (vascular cell adhesion molecule) adhesion to alpha4-beta1 integrin of leukocyte cells
Give bare numbers, in µM.

// known answers, use as guide
Problem: Fill in the blank: the reported IC50 of COC(=O)[C@H](CSSC[C@H](NC(=O)[C@@H]1CCCN1C(C)=O)C(=O)O)NC(=O)C12CC3CC(CC(C3)C1)C2 is ____.
Solution: 25.2

Problem: Report IC50 for C[C@H]1CN2CCC[C@H]2C(=O)N[C@H](C(=O)O)CSSC[C@H](NC(=O)C23CC4CC(CC(C4)C2)C3)C(=O)N1 please.
Solution: 0.33

Problem: Look at this compound and give its reported IC50. O=C(O)C[C@H]1CN2CCCC[C@H]2C(=O)N[C@H](C(=O)O)CSSC[C@H](NC(=O)C23CC4CC(CC(C4)C2)C3)C(=O)N1
Solution: 0.012

Proceed to the following item.
Problem: Please give the measured IC50 for this compound: O=C(O)[C@H](CSSC[C@H](NC(=O)C12CC3CC(CC(C3)C1)C2)C(=O)O)NC(=O)C12CC3CC(CC(C3)C1)C2
Solution: 7.3
